The reported measurements were obtained from PubChem BioAssay (NCI).

Test system: SN12C renal
methodSummary: NCI tumour cell line growth inhibition, 48 h
# reported TGI; entries follow
metric: TGI

>>> print(df.to_string())
                                   compound  assayedsystem    result
0   NC(N)=N/N=C/c1c(-c2ccc(Cl)cc2)nc2sccn12    SN12C renal    3.9 µM
1             Cn1cc2ccccc2c1-c1nc(F)nc(F)n1    SN12C renal  > 100 µM
2  C=C1c2ccccc2C(=O)c2c1c1c(C(=O)OC)c(O)ccc1n2Cc1ccccc1    SN12C renal  0.939 µM
3  Oc1c(C(Nc2cccc3cccnc23)c2ccccc2)ccc2cccnc12 (stereo not given)    SN12C renal  > 100 µM
4  N#Cc1c(N)nc(-c2ccc(Cl)cc2)c2c1-c1ccccc1S(=O)(=O)CC2    SN12C renal  > 100 µM
5  NC1=C(NC(=O)Cc2ccc(F)cc2)C(=O)c2ccccc2C1=O    SN12C renal  > 100 µM
6  C=CCNC1=C2C[C@@H](C)C[C@@H](OC)[C@H](OC(=O)CCN)[C@H](C)/C=C(\C)[C@@H](OC(N)=O)[C@H](OC)/C=C\C=C(/C)C(=O)NC(=CC1=O)C2=O    SN12C renal   16.2 µM
7  COC(=O)C1(C)CCC(c2ccc(C)cc2)=C(CC(=O)O)C1 (stereo not given)    SN12C renal  > 100 µM
8  C1=NCCN2CCN(CCN=Cc3ccc(cc3)OCc3cccc(n3)COc3ccc1cc3)CC2    SN12C renal   > 50 µM
9                      CCCCNc1nc(C#N)c(N)s1    SN12C renal  > 100 µM

* * *

Test system: SW-620 colon
methodSummary: NCI tumour cell line growth inhibition, 48 h
# reported TGI; entries follow
metric: TGI

                                        smi  assayedsystem    result
0  C=CCN1C(=O)/C(=C/c2ccc(OC)cc2)N=C1SC/C=C/C   SW-620 colon  > 100 µM
1              COC(=O)/C=C(/C)n1nc2ccccc2n1   SW-620 colon  > 100 µM
2             Cn1cc2ccccc2c1-c1nc(F)nc(F)n1   SW-620 colon  > 100 µM

* * *

# reported TGI; entries follow
Test system: OVCAR-4 ovarian
methodSummary: NCI tumour cell line growth inhibition, 48 h
metric: TGI

compound	result
CCC(C)(CC(C)(C)C(=O)NCC(=O)NC(Cc1ccccc1)C(=O)NC(Cc1ccccc1)C(=O)NCC(=O)NC1CC(OC2CC(O)(C(=O)CO)Cc3c(O)c4c(c(O)c32)C(=O)c2c(OC)cccc2C4=O)OC(C)C1O)C(=O)NCC(C)O (centres undefined)	> 150 µg/mL
COc1cc(CSc2nc3ccc(C)cc3c(=O)n2-c2ccccc2)cc(OC)c1OC	> 100 µM
COC(=O)/C=C(/C)n1nc2ccccc2n1	> 100 µM
CCOC(CN(C)C(=O)Nc1cccc2ccccc12)OCC	> 10 µM

* * *

Tested on: SNB-75 CNS
methodSummary: NCI tumour cell line growth inhibition, 48 h
# reported GI50; entries follow
metric: GI50

>>> df
                                        smi  assayedsystem    result
0  O=C1Nc2ccccc2/C1=C/C(=O)c1coc2c1C(=O)c1ccccc1C2=O     SNB-75 CNS   18.9 µM
1       CN(C)CCN1C(=O)c2ccccc2N(C)c2ccccc21     SNB-75 CNS  > 100 µM
2        CC(C)[C@H](N)C(=O)N1CCC[C@H]1B(O)O     SNB-75 CNS  > 100 µM
3            C(#Cc1ccccc1C#Cc1cccs1)c1cccs1     SNB-75 CNS  > 100 µM

* * *

# reported TGI; entries follow
System: SK-MEL-2 melanoma
methodSummary: NCI tumour cell line growth inhibition, 48 h
metric: TGI

molecule	metric	result
CCOC(CN(C)C(=O)Nc1cccc2ccccc12)OCC	TGI	> 10 µM
N#Cc1c(N)nc(-c2ccc(Cl)cc2)c2c1-c1ccccc1S(=O)(=O)CC2	TGI	> 100 µM
COc1ccc2c3c1O[C@]1(C)C34CCN(C)C(C2)C42C=C[C@@]1(OC)c1c(O)ccc(O)c12	TGI	> 100 µM
CC[C@]1(Cc2ccc(OC)c(OC)c2)C=[N+]([O-])O[C@H](OC2CCCC2(c2ccccc2)c2ccccc2)[C@@H]1OC(=O)c1ccccc1 (stereo not given in full)	TGI	37.5 µM
Cc1nn2c(/C=C3\C(=O)Nc4ccc(Cl)cc43)c(C)nc2s1	TGI	82.4 µM
CN(C)CCN1C(=O)c2ccccc2N(C)c2ccccc21	TGI	> 100 µM
C=Cc1ccc(C)[n+](C[Si](C)(C)O[Si](C)(C)C)c1	TGI	> 100 µM
CP1(=O)CCCCC1	TGI	> 100 µM
O=C(CCCCCCCCC(=O)N/N=C\c1ccccc1O)N/N=C\c1ccccc1O	TGI	> 36.8 µM
Cc1csc2[n+]1C(=O)/C(=C\c1ccc([N+](=O)[O-])cc1)S2	TGI	63.3 µM
C[C@]12CCC(=O)C=C1CC[C@@H]1[C@@H]2CC[C@]2(C)C(=O)NC(=O)C[C@@H]12	TGI	> 100 µM
C=CCOc1cccc(C2(O)c3ccccc3C3=NCCCN32)c1 (stereo not given)	TGI	17.5 µM
CCOc1ccc(NC(=O)C(=O)CC(=O)c2sc(NNC(C)=O)nc2C)cc1	TGI	> 100 µM
CC(C)(C)n1cc(-c2ccnc(NCCCNS(=O)(=O)c3ccc(C(F)(F)F)cc3)c2)c(-c2cccc(O)c2)n1	TGI	3.95 µM
COc1ccc(-c2c(C#N)c(N)n(C3OCC(OC(C)=O)C(OC(C)=O)C3OC(C)=O)c(=S)c2C#N)cc1 (stereo not given)	TGI	> 100 µM
O=C(O)c1cc([N+](=O)[O-])cc2c(=O)c3cnccc3[nH]c12	TGI	> 100 µM
Oc1ccccc1/C=C/c1csnn1	TGI	> 100 µM
O=[N+]([O-])c1cc(C(F)(F)F)cc([N+](=O)[O-])c1CCl	TGI	> 26.7 µM
CCc1c2c([nH]c(=S)c1C#N)CCC2	TGI	> 100 µM
CC(C)Cn1cnc2c(NCC(C)O)nc3ccccc3c21 (stereo not given)	TGI	> 100 µM
COc1ccc(Br)c(N/N=C2\CCCNC2=O)c1	TGI	> 100 µM
COC(=O)/C(C)=C(/CCC1(C)OCCO1)O[Si](C)(C)C	TGI	> 100 µM
COc1ccc2n[se]nc2c1	TGI	> 100 µM
Nc1ncnc2nc[nH]c12	TGI	> 250 µM
C[N+](C)(C)CC(=O)N/N=C/c1oc(-c2c(O)ccc3ccccc23)c(-c2c(O)ccc3ccccc23)c1[N+](=O)[O-]	TGI	33.4 µM
CCS(CC)(CC)CC1CCCC2=CCC(P(=O)(c3ccccc3)c3ccccc3)CC21 (stereo not given)	TGI	33.8 µM
C/C(CC(=O)Nc1ccc([N+](=O)[O-])cc1)=N\NC(N)=O	TGI	> 100 µM
[N-]=[N+]=Nc1ccccc1C(=O)N1C(=O)c2ccccc2C(=O)N(C(=O)c2ccccc2N=[N+]=[N-])c2ccccc21	TGI	> 100 µM
CN(CCCCCl)P(=O)(OCc1ccc([N+](=O)[O-])o1)OC[C@H]1O[C@@H](n2cc(F)c(=O)[nH]c2=O)C[C@@H]1O (stereo not given in full)	TGI	36.1 µM
CN(C)CCCSc1nc2ccccc2[nH]1	TGI	> 100 µM
CCCCNc1nc(C#N)c(N)s1	TGI	> 100 µM
CCOC(=O)C1=C(C)OC2(O)C=CC(O)=C3C(=O)N(c4ccccc4)C(=O)C312 (stereo not given)	TGI	68.4 µM
CN(C)CC/C(=N\Nc1ccc([N+](=O)[O-])cc1)c1ccccc1	TGI	28.2 µM
COc1cc(NC(C)CCCNC2CN3CCC2CC3)c2ncccc2c1 (stereo not given)	TGI	52.4 µM
C=CCN1C(=O)C=C(c2ccccc2)n2ncc3cccc1c32	TGI	> 100 µM
C=C1C(=O)O[C@H]2[C@H]1CC/C(COC(=O)NCc1cn(C)c3ccccc13)=C\CC[C@@]1(C)O[C@@H]21	TGI	7.79 µM
CCc1cc(C(=O)OC)cn1C(=N)c1ccc(Cl)cc1	TGI	> 100 µM
Cc1cc2c(cc1-c1cc3c(cc1C)C(C(C)C)=C(O)C(=O)/C3=C\Nc1c3ccccc3nc3ccccc13)/C(=C/Nc1c3ccccc3nc3ccccc13)C(=O)C(O)=C2C(C)C	TGI	19.2 µM
CCC(C)(CC(C)(C)C(=O)NCC(=O)NC(Cc1ccccc1)C(=O)NC(Cc1ccccc1)C(=O)NCC(=O)NC1CC(OC2CC(O)(C(=O)CO)Cc3c(O)c4c(c(O)c32)C(=O)c2c(OC)cccc2C4=O)OC(C)C1O)C(=O)NCC(C)O (stereo not given)	TGI	> 150 µg/mL
COc1ccc(Nc2nnc(-c3nsc4ccccc34)s2)cc1	TGI	> 100 µM
